Tested target: human Microtubule Affinity Regulating Kinase 1 (MARK1), MARK1 (gene 4139) (UniProt Q9P0L2)
Sequence (Q9P0L2 whole entry, looked up): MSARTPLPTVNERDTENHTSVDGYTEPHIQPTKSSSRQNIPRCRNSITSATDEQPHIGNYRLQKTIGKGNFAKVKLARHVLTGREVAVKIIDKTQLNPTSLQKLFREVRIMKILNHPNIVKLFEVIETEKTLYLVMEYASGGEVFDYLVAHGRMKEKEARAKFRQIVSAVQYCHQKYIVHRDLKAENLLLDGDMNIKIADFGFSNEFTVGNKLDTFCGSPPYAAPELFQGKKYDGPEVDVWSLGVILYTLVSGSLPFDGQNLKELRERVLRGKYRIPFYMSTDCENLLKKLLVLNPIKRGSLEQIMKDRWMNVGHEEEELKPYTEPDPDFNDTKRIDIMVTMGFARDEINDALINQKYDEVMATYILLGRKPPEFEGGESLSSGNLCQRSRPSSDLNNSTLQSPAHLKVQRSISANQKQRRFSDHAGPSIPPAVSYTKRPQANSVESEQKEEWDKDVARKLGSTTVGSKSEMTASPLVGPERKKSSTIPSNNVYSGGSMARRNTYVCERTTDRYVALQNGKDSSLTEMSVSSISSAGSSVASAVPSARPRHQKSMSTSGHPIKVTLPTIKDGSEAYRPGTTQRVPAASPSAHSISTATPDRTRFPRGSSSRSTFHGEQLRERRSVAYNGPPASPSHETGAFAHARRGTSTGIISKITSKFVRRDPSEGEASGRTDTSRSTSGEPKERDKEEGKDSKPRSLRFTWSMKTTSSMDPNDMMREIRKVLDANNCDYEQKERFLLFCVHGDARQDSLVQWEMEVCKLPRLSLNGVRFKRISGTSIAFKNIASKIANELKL
Assay: NVS_ENZ_hMARK1: NovaScreen (NVS) Enzymatic Assay for human Microtubule Affinity Regulating Kinase 1 (MARK1)
Results filed as inconclusive are left out. Active and inactive are the calls of the source. How the source made its calls: active means hit-call score of the fitted dose curve at least 0.9, where 1 is the maximum; inconclusive means response in the unintended direction; inactive means score below 0.9.
Your reply should match one of these outcome classes. yes (1) (active), no (0) (inactive)

Before answering, review these 4 worked examples.
Smiles representation: COc1nc(C)nc(NC(=O)NS(=O)(=O)c2ccccc2CCC(F)(F)F)n1
Class name: no (0)
//
Smiles representation: COP(=S)(OC)Oc1nc(Cl)c(Cl)cc1Cl
Class name: no (0)
//
Smiles representation: CCOP(=O)(OCC)Oc1nc(Cl)c(Cl)cc1Cl
Class name: no (0)
//
Smiles representation: CNC(=S)S
Class name: no (0)

Tell me the assay call for `CN(C)[C@@H]1C(=O)C(C(N)=O)=C(O)[C@@]2(O)C(=O)C3=C(O)c4c(O)cccc4[C@@](C)(O)[C@H]3[C@H](O)[C@@H]12` please. yes (1)

Tell me the assay call for `Nc1c(Cl)cc([N+](=O)[O-])cc1Cl` please. no (0)

Tell me the assay call for `CCNC(=O)NC(=O)C(C#N)=NOC` please. no (0)
